# Test system: human SMAD7 mRNA
# Method Description: Antisense inhibition of human SMAD7 mRNA expression in Hep3B cells by 5-10-5 MOE gapmers, single concentration, electroporation, RT-PCR (Example 1, Study 1 and 2)
# Type: cell-based
# Settings: Study 2, electroporation with 15,000 nM antisense oligonucleotide, 5-10-5 MOE gapmers targeting SEQ ID NO: 1 and 2
# Protocol: Antisense oligonucleotides were designed to target human SMAD7 mRNA and were tested for their effects on SMAD7 mRNA expression in vitro. […] After a treatment period of approximately 24 hours, RNA was isolated from the cells and SMAD7 mRNA levels were measured by quantitative real-time PCR. […] SMAD7 mRNA levels were adjusted according to total RNA content, as measured by RIBOGREEN®. […]
Strand notation (5' to 3'): a small letter for the sugar, then the base; units joined by * are phosphorothioate-linked, units joined directly phosphodiester-linked; [ ] holds rarer units or linkages, { } end groups; capitals alone tell only the bases. e = 2'-O-(2-methoxyethyl) (MOE); [5mC] = 5-methylcytosine; d = 2'-deoxy (DNA)
Entries and their % inhibition of SMAD7 mRNA expression
# value in %; strip the unit string

Use these answered entries as a reference point.
1) 771453 (antisense eA*eT*e[5mC]*eT*eG*dG*dA*d[5mC]*dA*dG*dT*d[5mC]*dT*dG*d[5mC]*eA*eG*eT*eT*eG) [compound 771453]    38
2) 771662 (antisense eA*eT*eG*eA*eG*dA*dA*dT*dG*d[5mC]*dT*dT*d[5mC]*dT*d[5mC]*eT*eT*eG*eT*eT) [compound 771662]    29
3) 771477 (antisense eT*eG*e[5mC]*eG*eG*dT*dT*dG*dT*dA*d[5mC]*dA*d[5mC]*d[5mC]*d[5mC]*eA*e[5mC]*eA*e[5mC]*eA) [compound 771477]    20
4) 771607 (antisense eG*eG*eT*eG*eA*dG*d[5mC]*dA*dA*dT*dA*d[5mC]*dT*dG*dT*eG*eA*eG*eG*eG) [compound 771607]    34

Noted for 771526 (antisense eG*eT*eT*eT*eG*d[5mC]*dA*dT*dG*dA*dA*dA*dA*dG*d[5mC]*eA*eA*eG*e[5mC]*eA) [compound 771526] : its % inhibition of SMAD7 mRNA expression reads 26

Noted for 771542 (antisense eA*e[5mC]*eA*eA*eT*dT*d[5mC]*dT*dT*dT*dT*d[5mC]*dA*dT*dA*eA*eG*e[5mC]*eT*eA) [compound 771542] : its % inhibition of SMAD7 mRNA expression reads 0

Noted for 771631 (antisense eG*eG*eG*eA*e[5mC]*dT*dG*d[5mC]*dT*dA*dA*dG*d[5mC]*dA*dT*eG*eT*e[5mC]*e[5mC]*e[5mC]) [compound 771631] : its % inhibition of SMAD7 mRNA expression reads 0

Noted for 771574 (antisense e[5mC]*eG*e[5mC]*eT*eT*dG*dG*dG*dA*d[5mC]*dT*dG*d[5mC]*dA*dA*eA*e[5mC]*e[5mC]*eT*e[5mC]) [compound 771574] : its % inhibition of SMAD7 mRNA expression reads 66

Noted for 771535 (antisense eA*eA*e[5mC]*eA*eA*dA*dA*d[5mC]*dA*dG*dA*dA*d[5mC]*dA*d[5mC]*eA*eA*eA*e[5mC]*eG) [compound 771535] : its % inhibition of SMAD7 mRNA expression reads 17

Noted for 771638 (antisense eT*eA*eG*eG*eA*dT*dG*dG*dT*dA*d[5mC]*d[5mC]*dT*dT*dG*eG*eG*eT*eT*eA) [compound 771638] : its % inhibition of SMAD7 mRNA expression reads 41

Noted for 771580 (antisense eA*eG*e[5mC]*eT*eT*dG*d[5mC]*d[5mC]*d[5mC]*dA*dG*dG*dT*dA*d[5mC]*eT*eG*e[5mC]*e[5mC]*eT) [compound 771580] : its % inhibition of SMAD7 mRNA expression reads 25

Noted for 771623 (antisense eT*eA*eA*e[5mC]*eA*d[5mC]*dA*d[5mC]*dA*dG*dG*dA*dT*dG*dG*eG*eA*eG*e[5mC]*eA) [compound 771623] : its % inhibition of SMAD7 mRNA expression reads 51

Noted for 771519 (antisense eA*eA*eA*eG*e[5mC]*dA*dA*dG*d[5mC]*dA*d[5mC]*dT*d[5mC]*dA*dG*eG*eA*eG*eG*eA) [compound 771519] : its % inhibition of SMAD7 mRNA expression reads 25

Noted for 771516 (antisense eG*eA*eG*eG*eA*dA*dA*dA*dT*dA*dT*dT*dA*dG*d[5mC]*eA*eG*e[5mC]*eA*eA) [compound 771516] : its % inhibition of SMAD7 mRNA expression reads 8

Noted for 771511 (antisense eT*eT*eT*eG*eA*dA*dG*dT*dG*dT*dG*dG*d[5mC]*d[5mC]*dT*eG*e[5mC]*eT*e[5mC]*eA) [compound 771511] : its % inhibition of SMAD7 mRNA expression reads 31

Noted for 771496 (antisense eT*eG*eA*e[5mC]*e[5mC]*dT*d[5mC]*dT*dA*dG*d[5mC]*d[5mC]*dA*dG*d[5mC]*eA*e[5mC]*eG*eG*eG) [compound 771496] : its % inhibition of SMAD7 mRNA expression reads 20

---

# Tested on: human SMAD7 mRNA
# Method Description: Antisense inhibition of human SMAD7 mRNA expression in Hep3B cells by 5-10-5 MOE gapmers, single concentration, electroporation, RT-PCR (Example 1, Study 1 and 2)
# Type: cell-based
# Settings: Study 2, electroporation with 15,000 nM antisense oligonucleotide, 5-10-5 MOE gapmers targeting SEQ ID NO: 1 and 2
# Procedure: Antisense oligonucleotides were designed to target human SMAD7 mRNA and were tested for their effects on SMAD7 mRNA expression in vitro. […] After a treatment period of approximately 24 hours, RNA was isolated from the cells and SMAD7 mRNA levels were measured by quantitative real-time PCR. […] SMAD7 mRNA levels were adjusted according to total RNA content, as measured by RIBOGREEN®. […]
Strand notation (5' to 3'): a small letter for the sugar, then the base; units joined by * are phosphorothioate-linked, units joined directly phosphodiester-linked; [ ] holds rarer units or linkages, { } end groups; capitals alone tell only the bases. e = 2'-O-(2-methoxyethyl) (MOE); [5mC] = 5-methylcytosine; d = 2'-deoxy (DNA)
Property: % inhibition of SMAD7 mRNA expression (%)
# value in %; strip the unit string

Use these answered entries as a reference point.
1. 771598 (antisense eG*eA*eA*eG*eG*dG*dA*dA*dT*dA*dA*dG*dA*d[5mC]*dA*eA*eG*eG*eA*eT) [compound 771598]    34
2. 771504 (antisense e[5mC]*eA*eG*e[5mC]*eT*d[5mC]*dA*d[5mC]*dG*d[5mC]*dT*d[5mC]*dT*dG*dT*e[5mC]*e[5mC]*e[5mC]*e[5mC]*eT) [compound 771504]    48

Noted for 771534 (antisense eA*eA*e[5mC]*eA*eG*dA*dA*d[5mC]*dA*d[5mC]*dA*dA*dA*d[5mC]*dG*eA*eG*eG*eA*e[5mC]) [compound 771534] : its % inhibition of SMAD7 mRNA expression reads 0

Noted for 771654 (antisense eA*eA*eA*e[5mC]*eA*dT*dG*d[5mC]*dT*d[5mC]*dA*dT*dT*dG*dA*eG*e[5mC]*eT*eA*eA) [compound 771654] : its % inhibition of SMAD7 mRNA expression reads 32

---

# Tested on: human SMAD7 mRNA
# Method Description: Antisense inhibition of human SMAD7 mRNA expression in Hep3B cells by 3-10-3 cEt gapmers, 10,000 nM, electroporation (Example 2)
# Format: cell-based
# Settings: Hep3B cells, electroporation with 10,000 nM antisense oligonucleotide, approximately 24 hours, primer probe set RTS5062, relative to untreated control cells
Strand notation (5' to 3'): a small letter for the sugar, then the base; units joined by * are phosphorothioate-linked, units joined directly phosphodiester-linked; [ ] holds rarer units or linkages, { } end groups; capitals alone tell only the bases. k = constrained ethyl (cEt); [5mC] = 5-methylcytosine; d = 2'-deoxy (DNA)
Property: % inhibition of SMAD7 mRNA expression (%)
# value in %; strip the unit string

Use these answered entries as a reference point.
1. 799456 (antisense kT*k[5mC]*k[5mC]*dT*dA*dA*dG*dT*dA*d[5mC]*dT*dG*dT*kT*kA*kA) [compound 799456]    0
2. 799267 (antisense kG*kT*kT*d[5mC]*dG*dG*d[5mC]*d[5mC]*dT*dT*d[5mC]*d[5mC]*dA*kT*k[5mC]*k[5mC]) [compound 799267]    62
3. 799232 (kT*k[5mC]*kA*dG*d[5mC]*dT*dA*dG*dG*dT*dG*dA*dT*kA*kA*k[5mC]; antisense) [compound 799232]    13
4. 799027 (kA*k[5mC]*k[5mC]*dG*d[5mC]*dT*dT*dG*dG*dG*dA*d[5mC]*dT*kG*k[5mC]*kA; antisense) [compound 799027]    46
5. 799049 (antisense kG*k[5mC]*k[5mC]*d[5mC]*dG*dT*dG*dT*d[5mC]*d[5mC]*dT*dT*dG*kA*kT*kG) [compound 799049]    44

Noted for 799325 (antisense kT*k[5mC]*kT*d[5mC]*d[5mC]*d[5mC]*dA*dG*dG*dA*dG*dG*dG*kT*kA*kT) [compound 799325] : its % inhibition of SMAD7 mRNA expression reads 2

Noted for 798657 (k[5mC]*k[5mC]*kG*d[5mC]*dG*d[5mC]*dG*dG*d[5mC]*d[5mC]*d[5mC]*dG*d[5mC]*kG*k[5mC]*k[5mC]; antisense) [compound 798657] : its % inhibition of SMAD7 mRNA expression reads 0

Noted for 798790 (k[5mC]*kG*kG*dG*dT*dA*dT*d[5mC]*dT*dG*dG*dA*dG*kT*kA*kA; antisense) [compound 798790] : its % inhibition of SMAD7 mRNA expression reads 49

Noted for 772559 (antisense kA*kG*k[5mC]*dG*dA*dG*dT*dA*dG*dG*dA*d[5mC]*dG*kA*kG*kG) [compound 772559] : its % inhibition of SMAD7 mRNA expression reads 14

Noted for 798750 (antisense kA*kG*kG*dA*dG*dG*d[5mC]*dA*d[5mC]*dG*d[5mC]*dG*dG*kT*kG*k[5mC]) [compound 798750] : its % inhibition of SMAD7 mRNA expression reads 54

Noted for 798785 (k[5mC]*kT*kA*dG*dT*dT*d[5mC]*dG*d[5mC]*dA*dG*dA*dG*kT*k[5mC]*kG; antisense) [compound 798785] : its % inhibition of SMAD7 mRNA expression reads 0

Noted for 799028 (kA*kG*kA*d[5mC]*dA*d[5mC]*d[5mC]*dG*d[5mC]*dT*dT*dG*dG*kG*kA*k[5mC]; antisense) [compound 799028] : its % inhibition of SMAD7 mRNA expression reads 37

Noted for 798705 (antisense kG*kG*k[5mC]*dT*dG*dT*d[5mC]*d[5mC]*dG*dT*d[5mC]*dG*d[5mC]*k[5mC]*k[5mC]*k[5mC]) [compound 798705] : its % inhibition of SMAD7 mRNA expression reads 41

Reference source for all entries: patent US10517889B2
